# assayed-system: human CLDN18.2 (human)
# protocol-text: cell-based or functional assay
test-readout: ADCC EC50, Jurkat-CD16a v158-NFAT-luciferase effector cells, U2OS-CLDN18.2 target cells (nM)
Could you give me the number in nM? Just the number is fine.

{"columns": ["binder", "experimental-value"],
 "data": [
  ["humanized antibody hz28G3-1.2 (antibody, human IgG1, kappa, V domains shown) VH: QVQLVQSGAEVKKPGASVKVSCKASGYTFTDYLMLWVRQAPGQGLEWMGNINPYYGRTYYALKFQGRVTMTVDRSTSTVYMELSSLRSEDTAVYYCARDGYSLRNAMDYWGQGTLVTVSS VL: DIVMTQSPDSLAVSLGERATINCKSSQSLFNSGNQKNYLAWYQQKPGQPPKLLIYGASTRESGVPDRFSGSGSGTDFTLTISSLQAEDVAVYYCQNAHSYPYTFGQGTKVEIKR", 0.015],
  ["humanized antibody hz28G3-2.2 (antibody, human IgG1, kappa, V domains shown) VH: QVQLVQSGAEVKKPGASVKVSCKASGYTFTDYLMLWVRQAPGQGLEWMGNINPYYGRTYYALKFQGRVTMTVDRSTSTVYMELSSLRSEDTAVYYCARDGYSLRNAMDYWGQGTLVTVSS VL: DIVMTQSPYSLAVSLGERATINCKSSQSLFNSGNQKNYLAWYQQKPGQPPKLLIYGASTRESGVPDRFTGSGSGTDFTLTISSLQAEDVAVYYCQNAHSYPYTFGQGTKVEIKR", 0.017],
  ["humanized antibody hz28G3-1.1 (antibody, human IgG1, kappa, V domains shown) VH: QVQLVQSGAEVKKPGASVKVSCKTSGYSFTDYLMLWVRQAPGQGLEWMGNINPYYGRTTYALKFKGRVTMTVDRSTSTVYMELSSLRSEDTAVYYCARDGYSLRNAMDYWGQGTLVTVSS VL: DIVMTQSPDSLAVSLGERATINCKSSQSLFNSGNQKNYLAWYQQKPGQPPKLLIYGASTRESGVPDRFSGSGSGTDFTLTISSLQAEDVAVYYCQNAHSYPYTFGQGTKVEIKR", 0.016],
  ["humanized antibody hz28G3-1.3 (antibody, human IgG1, kappa, V domains shown) VH: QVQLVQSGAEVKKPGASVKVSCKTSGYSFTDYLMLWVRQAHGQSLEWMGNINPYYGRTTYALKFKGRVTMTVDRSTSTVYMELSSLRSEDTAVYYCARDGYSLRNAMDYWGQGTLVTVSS VL: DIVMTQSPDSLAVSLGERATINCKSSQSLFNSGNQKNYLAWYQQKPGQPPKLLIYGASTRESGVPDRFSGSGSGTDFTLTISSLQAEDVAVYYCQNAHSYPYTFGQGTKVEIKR", 0.023],
  ["humanized antibody hz28G3-2.4 (antibody, human IgG1, kappa, V domains shown) VH: QVQLVQSGAEVKKPGASVKVSCKASGYTFTDYLMLWVRQAHGQSLEWMGNINPYYGRTYYALKFQGRVTMTVDRSTSTVYMELSSLRSEDTAVYYCARDGYSLRNAMDYWGQGTLVTVSS VL: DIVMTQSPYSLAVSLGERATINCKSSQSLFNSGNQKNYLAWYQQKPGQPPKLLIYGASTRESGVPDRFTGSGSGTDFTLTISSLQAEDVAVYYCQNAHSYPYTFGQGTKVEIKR", 0.017]
]}

Quick one: ADCC EC50, Jurkat-CD16a v158-NFAT-luciferase effector cells, U2OS-CLDN18.2 target cells for chimeric antibody xi28G3 (antibody, human IgG1, kappa, V domains shown, Mouse variable regions on human IgG1/kappa; defucosylated, expressed in FUT8-knockout CHO-S cells; also called chimeric 28G3) VH: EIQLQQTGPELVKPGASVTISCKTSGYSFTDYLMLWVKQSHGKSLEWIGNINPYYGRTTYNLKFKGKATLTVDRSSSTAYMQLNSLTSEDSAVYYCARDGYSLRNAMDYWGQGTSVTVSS VL: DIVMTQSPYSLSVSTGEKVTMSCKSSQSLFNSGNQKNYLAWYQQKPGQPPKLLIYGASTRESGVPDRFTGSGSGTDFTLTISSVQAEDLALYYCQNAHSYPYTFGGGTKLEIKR ?
0.018

// next record humanized antibody hz28G3-2.1 (antibody, human IgG1, kappa, V domains shown) VH: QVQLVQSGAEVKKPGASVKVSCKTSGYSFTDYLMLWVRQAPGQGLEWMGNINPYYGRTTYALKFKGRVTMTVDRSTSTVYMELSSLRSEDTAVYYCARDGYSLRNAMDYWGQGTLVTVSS VL: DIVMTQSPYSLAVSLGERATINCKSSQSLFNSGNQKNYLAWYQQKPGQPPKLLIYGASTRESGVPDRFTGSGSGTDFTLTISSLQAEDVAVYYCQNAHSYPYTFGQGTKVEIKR
0.019
